# Tested on: NCI-1703
# Assay summary: cell viability of NCI-1703 cells, 1 and 10 uM of each erlotinib derivative, and IC50
# Format: cell-based
# Condition label: Homo sapiens; 10 uM
For each record, check the reported viability at 10 µM: if it is below 30% write class 1, else write class 0.

Reference set (3 entries):
C#Cc1cccc(Nc2nc3cc([N+](=O)[O-])ccc3nc2Nc2ccc(O)cc2)c1: class 0
FC(F)(F)Oc1ccc(Nc2nc3ccccc3nc2Nc2ccc(OC(F)(F)F)cc2)cc1: class 1
COc1cccc(Nc2nc3ccc([N+](=O)[O-])cc3nc2Nc2cccc(OC)c2)c1: class 1

Prompt: Lab note: confirm whether the reported viability at 10 µM for this molecule is below 30%, equality not counting. molecule: `Nc1ccc2nc(Nc3ccc(C(F)(F)F)cc3)c(Nc3ccc(C(F)(F)F)cc3)nc2c1`
Completion: class 1

Prompt: I wonder whether `c1ccc(Nc2nc3ccccc3nc2Nc2ccccc2)cc1` has viability at 10 µM below 30%. Can you tell?
Completion: class 0

====

Would you mind telling me the reported minimal concentration for PP2A activation of each entry?
# Test system: PP2A
# Assay summary: PP2A phosphatase activity (malachite green-phosphate assay in cell lysate)
# Type: cell-based

Recorded results for 5 molecules are shown here.
FC(F)(F)Oc1ccc(Nc2nc3ccccc3nc2Cl)cc1: >200 nM
Clc1cc(Cl)cc(Nc2nc3ccccc3nc2Cl)c1: >200 nM
FS(F)(F)(F)(F)c1ccc(Nc2nc3ccccc3nc2Nc2ccc(S(F)(F)(F)(F)F)cc2)cc1: <50 nM
FC(F)(F)c1cc(Nc2nc3ccccc3nc2Nc2ccc(Cl)c(C(F)(F)F)c2)ccc1Cl: 100 to 200 nM
FS(F)(F)(F)(F)c1ccc(Nc2nc3ccccc3nc2Cl)cc1: >200 nM

Each molecule below has a reported value. Please supply its minimal concentration for PP2A activation.
1. FC(F)(F)Oc1ccc(Nc2nc3ccccc3nc2Nc2ccc(OC(F)(F)F)cc2)cc1
2. COc1cccc(Nc2nc3ccc([N+](=O)[O-])cc3nc2Nc2cccc(OC)c2)c1
3. Nc1ccc2nc(Nc3ccc(C(F)(F)F)cc3)c(Nc3ccc(C(F)(F)F)cc3)nc2c1

Completion:
["50 to 100 nM", ">200 nM", ">200 nM"]

====

# Test system: NCI-H226
# Assay summary: cell viability of NCI-H226 cells, 1 and 10 uM
# Format: cell-based
# Condition label: Homo sapiens, 10 uM
Measured property: viability at 10 µM (%)
Answers are plain numbers, in %.

C#Cc1cccc(Nc2nc3cc([N+](=O)[O-])ccc3nc2Nc2ccc(O)cc2)c1 [TD619]: 19.5
COc1ccc(Nc2nc3ccc([N+](=O)[O-])cc3nc2Nc2ccc(OC)cc2)cc1 [TD602]: 8.1
FS(F)(F)(F)(F)c1ccc(Nc2nc3ccccc3nc2Nc2ccc(S(F)(F)(F)(F)F)cc2)cc1 [TD68]: 14.8
FC(F)(F)c1cc(Nc2nc3ccccc3nc2Nc2ccc(Cl)c(C(F)(F)F)c2)ccc1Cl [TD63]: 19.6
FC(F)(F)c1cccc(Nc2nc3ccccc3nc2Nc2cccc(C(F)(F)F)c2)c1 [TD60]: 15.9

Look at each compound and report its viability at 10 µM.
1. Nc1ccc2nc(Nc3ccc(C(F)(F)F)cc3)c(Nc3ccc(C(F)(F)F)cc3)nc2c1 [TD607]
2. c1ccc(Nc2nc3ccccc3nc2Nc2ccccc2)cc1 [TD55, N^2,N^3-diphenylquinoxaline-2,3-diamine]
3. O=[N+]([O-])c1ccc2nc(Nc3cccc(Br)c3)c(Nc3cccc(Br)c3)nc2c1 [TD618]

Completion:
1: 36.7; 2: 96.4; 3: 16.7
